Test: Bidirectional transport across LLC-PK1 MOCK monolayer (Transwell)
Settings: pig, LLC-PK1 MOCK cell monolayer (Transwell), pH 7.4, Recovery A-B, LLC-PK1 MOCK, 2 µM, 2 h, n = 3
ENDPOINT_LABEL: recovery at 2 h, 2 µM (%)

[[record]]
compound = "Cc1cc(=O)n(-c2ccccc2)n1C [Antipyrine]"
endpoint_label = "recovery at 2 h, 2 µM"
quantitative_readout = 116


###

Assay: Bidirectional transport across LLC-PK1 MOCK monolayer (Transwell);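 further: compound quantified by LC-MS/MS in donor and receiver wells, efflux ratio as B-A over A-B Papp, recovery relative to initial donor amount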
Details: pig, LLC-PK1, pH 7.4, with tariquidar 5 µM (P-gp inhibitor)
ENDPOINT_LABEL: Papp at 2 h, 2 µM (×10⁻⁶ cm/s)

[[record]]
smiles_data = "C[C@H]1O[C@@H](O[C@H]2[C@@H](O)C[C@H](O[C@H]3[C@@H](O)C[C@H](O[C@H]4CC[C@@]5(C)[C@H](CC[C@@H]6[C@@H]5C[C@@H](O)[C@]5(C)[C@@H](C7=CC(=O)OC7)CC[C@]65O)C4)O[C@@H]3C)O[C@@H]2C)C[C@H](O)[C@@H]1O"
endpoint_label = "Papp at 2 h, 2 µM"
quantitative_readout = 2.1

